Test: VP16 transactivation inhibitors, counter-screen for SRC1 inhibitor project, cell-based, luminescence, high throughput (AID 588824)
Conditions: cell-based VP16 transactivation luciferase luminescence; at 3.6 µM; hits give high values
Reported metric: inhibition (%)

Nc1ncnc2c(C3OC(CO)C(O)C3O)c[nH]c12 (stereo not drawn) : 96
CCc1nnc(NC(=O)CCC(=O)NCc2ccccc2Cl)s1 : 6.37
COc1ccc(Cl)cc1NC(=O)CSc1nc(=O)n(CCN(C)C)c2c1CCCC2 : -0.03
Cc1ccc2nc(NC(=O)CSCC(=O)OCC(=O)c3ccccc3)sc2c1 : 30.5
Cc1cc(C)nc(NC(=O)c2ccc(COc3ccccc3Cl)cc2)c1 : 42.7
CCn1c(Oc2ccc(F)cc2)nc2c1c(=O)n(C)c(=O)n2C : 23.5
COc1ccc(C)cc1N=Nc1ccc(O)c2ncccc12 : 0.73
CCCN(CCC)c1nc(-c2ccccn2)nc2ccccc12 : 29.9
Nc1ccccc1Nc1cccc(C(F)(F)F)c1 : 13.5
Cn1cc(S(=O)(=O)Nc2ccc(OC(F)(F)F)cc2)c(=O)n(C)c1=O : -5.51
O=C(N/N=C/c1cc([N+](=O)[O-])ccc1O)NC12CC3CC(CC(C3)C1)C2 : 10.3
CCCc1cc(=O)oc2c(C)c(O[C@@H]3O[C@H](CO)[C@@H](O)[C@H](O)[C@H]3O)ccc12 : -0.67
CC(C)OCCCn1c(=O)c2ccccc2n2c(CCC(=O)N3CCN(c4ccccn4)CC3)nnc12 : -9.58
Cn1c2c(c(=O)n(C)c1=O)C(C(F)(F)F)(C(F)(F)F)N=C(c1ccc(Cl)cc1)N2 : 83.9
CCCCc1ccc(NC(=O)Nc2c(C)n(C)n(-c3ccccc3)c2=O)cc1 : 7.24
COc1cncc(-c2cnc3sc(NCCc4ccccn4)nn23)c1 : 30.6
Cc1cc(C)nc(/N=C(\N)Nc2ccc(-c3ccccc3)cc2)n1 : 30.1
CCN(CC)c1ncnc2ccc(Br)cc12 : 36
Cc1cc2c(NCc3ccccc3)ncnc2s1 : 18.8
CC1CCCN(c2ncnc3c2cnn3-c2ccc(Cl)cc2)C1 (stereo not drawn) : 71.4
CCCCCCCCCn1ccc(=N)cc1 : 85.2
COC(=O)C1=C(CN2CCCc3ccccc32)NC(=O)NC1c1ccc(F)cc1 (stereo not drawn) : 34.7
C=C1C(=O)OC2CC1C(O)CC(C)=CCCC(C)=CC(O)CC2C (stereo not drawn) : 49.7

Source listed as PubChem BioAssay.
